molecular target: human PDE9A2 (Homo sapiens, UniProt O76083); construct: made in house; host or cells: Sf9 insect cells (infected; crude lysate used as enzyme source); assay: PDE9A2 enzymatic activity assay (scintillation proximity assay); assay type: biochemical; details: at 10 μM; read-out: % Inhibition of PDE 9A2
Sequence (O76083 1-533 isoform O76083-2): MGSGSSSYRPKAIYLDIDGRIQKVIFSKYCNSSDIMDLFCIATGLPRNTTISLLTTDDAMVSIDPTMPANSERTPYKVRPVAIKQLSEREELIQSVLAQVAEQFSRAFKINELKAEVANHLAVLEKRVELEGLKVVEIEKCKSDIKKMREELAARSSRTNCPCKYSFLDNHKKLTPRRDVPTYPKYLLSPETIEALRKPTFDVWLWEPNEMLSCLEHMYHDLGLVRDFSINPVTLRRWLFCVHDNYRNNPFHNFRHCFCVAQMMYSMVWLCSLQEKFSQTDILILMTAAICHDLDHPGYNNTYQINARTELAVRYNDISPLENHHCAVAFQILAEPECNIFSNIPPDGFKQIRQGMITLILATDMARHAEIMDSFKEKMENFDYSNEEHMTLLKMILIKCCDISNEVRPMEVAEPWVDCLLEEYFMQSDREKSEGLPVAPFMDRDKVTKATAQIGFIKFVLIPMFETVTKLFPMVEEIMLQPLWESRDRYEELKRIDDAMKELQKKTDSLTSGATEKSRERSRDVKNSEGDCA
readout.name: inhibition at 10 µM (%)
Give bare numbers, in %.

CCCC1OCCCC1Cc1nc2c(cnn2C2CCC(F)(F)CC2)c(=O)[nH]1 (racemic) [Example 24] ... 98
CCC(Cc1nc2c(cnn2C2CCC(F)(F)CC2)c(=O)[nH]1)C(F)(F)F (single isomer, unassigned) [Example 101] ... 100
O=c1[nH]c(Cc2ncccc2-n2cccn2)nc2c1cnn2C1CCC(F)(F)CC1 [Example 96] ... 93
CC(Cc1nc2c(cnn2C2CCC(F)(F)CC2)c(=O)[nH]1)C(F)F (racemic) [Example 48-5] ... 93
O=c1[nH]c(CC2CCCC2)nc2c1cnn2C1CCC(F)CC1 (centres unmarked) [Example 113] ... 98
Cn1nccc1-c1ccc(F)cc1Cc1nc2c(cnn2C2CCC(F)(F)CC2)c(=O)[nH]1 [Example 72-2] ... 98

Would you be so kind as to report inhibition at 10 µM for each listed record?
1. N#Cc1ccc(-c2ccc(F)cc2Cc2nc3c(cnn3C3CCC(F)(F)CC3)c(=O)[nH]2)cn1 [Example 57]
2. O=c1[nH]c(CCCC(F)(F)F)nc2c1cnn2C1CCC(F)(F)CC1 [Example 32]

1. 101
2. 98

Would you be so kind as to report inhibition at 10 µM for each listed record?
1. Cc1cccnc1Cc1nc2c(cnn2C2CCC(F)(F)CC2)c(=O)[nH]1 [Example 35]
2. CC(C)Cc1nc2c(cnn2C2CCC(F)(F)CC2)c(=O)[nH]1 [Example 9]
3. O=c1[nH]c(C(F)c2ccccc2Br)nc2c1cnn2C1CCC(F)(F)CC1 (racemic) [Example 48-2]
4. CCC(CC)Cc1nc2c(cnn2C2CCC(F)(F)CC2)c(=O)[nH]1 [Example 21]

1. 94
2. 97
3. 92
4. 103

Would you be so kind as to report inhibition at 10 µM for each listed record?
1. O=c1[nH]c(Cc2ccccc2)nc2c1cnn2C1CCC(F)(F)CC1 [Example 4]
2. CCC(Cc1nc2c(cnn2C2CCC(F)(F)CC2)c(=O)[nH]1)C(F)(F)F (racemic) [Example 27]
3. COc1ccc(Cc2nc3c(cnn3C3CCC(F)(F)CC3)c(=O)[nH]2)cc1 [Example 26]

[100, 104, 100]

Would you be so kind as to report inhibition at 10 µM for each listed record?
1. CN1CCN(C(=O)Cc2ccccc2Cc2nc3c(cnn3C3CCC(F)(F)CC3)c(=O)[nH]2)CC1 [Example 80]
2. NC1CCCC(n2ncc3c(=O)[nH]c(CC4CCCC4)nc32)C1 (racemic) [Example 86]

1. 91
2. 77

Would you be so kind as to report inhibition at 10 µM for each listed record?
1. Cc1ncn(-c2ccccc2Cc2nc3c(cnn3C3CCC(F)(F)CC3)c(=O)[nH]2)n1 [Example 95-1]
2. CC1(C)CC(Cc2nc3c(cnn3C3CCC(F)(F)CC3)c(=O)[nH]2)CO1 (single isomer, unassigned) [Example 77]

[111, 100]

Would you be so kind as to report inhibition at 10 µM for each listed record?
1. Cc1ccc(-c2ccccc2Cc2nc3c(cnn3C3CCC(F)(F)CC3)c(=O)[nH]2)o1 [Example 93]
2. CC(C)(C)OC(=O)NC1CCCC(n2ncc3c(=O)[nH]c(CC4CCCC4)nc32)C1 (mixture of isomers) [Example 16]
3. O=c1[nH]c(CC2CCC(F)(F)CC2)nc2c1cnn2C1CCC(F)(F)CC1 [Example 34]
4. CC(=O)NC1CCCC(n2ncc3c(=O)[nH]c(Cc4ccccc4OC(F)(F)F)nc32)C1 (mixture of isomers) [Example 49]
5. O=c1[nH]c(Cc2cc(F)ccc2-n2cccn2)nc2c1cnn2C1CCC(F)(F)CC1 [Example 89]
6. NC1CCCC(n2ncc3c(=O)[nH]c(Cc4ccccc4OC(F)(F)F)nc32)C1 (racemic) [Example 87]
7. O=C(NC1CCCC(n2ncc3c(=O)[nH]c(CC4CCCC4)nc32)C1)c1ccccc1 (racemic) [Example 51]

94
104
96
99
98
81
98

Would you be so kind as to report inhibition at 10 µM for each listed record?
1. CC(C)Cc1nc2c(cnn2C2CCC(F)CC2)c(=O)[nH]1 (centres unmarked) [Example 112]
2. COc1ccc(-c2ccccc2Cc2nc3c(cnn3C3CCC(F)(F)CC3)c(=O)[nH]2)cn1 [Example 56]
3. O=c1[nH]c(C(F)c2ccccc2)nc2c1cnn2C1CCC(F)(F)CC1 (racemic) [Example 25]

[97, 99, 103]

Would you be so kind as to report inhibition at 10 µM for each listed record?
1. O=c1[nH]c(CC2CCOC2)nc2c1cnn2C1CCC(F)(F)CC1 (centres unmarked) [Example 23]
2. Cn1cc(-c2ccccc2C(F)c2nc3c(cnn3C3CCC(F)(F)CC3)c(=O)[nH]2)cn1 (racemic) [Example 72-11]
3. COc1ccccc1Cc1nc2c(cnn2C2CCC(F)(F)CC2)c(=O)[nH]1 [Example 48-3]

[100, 84, 95]
